Listing of recorded pEC50 by entry.
target desc: UniProt:P20393
experiment summary: M2H (mammalian two-hybrid) cellular activation assay of Rev-Erb alpha
Type: cell-based
conditions used: M2H assay, HEK293 cells, Gal4-Rev-Erb alpha / VP16-NCoR, luciferase reporter
Experimental: In this system, Rev-Erb alpha or Rev-Erb beta is expressed as a fusion to the Gal4 DNA-binding domain and the cofactor NCoR is expressed as a fusion to the activation domain of the Herpes Simplex Virus tegument protein VP16. […] The pBS-SK+ vector was added to the preparation to adjust the DNA quantity to a fixed value for each condition. […] Cells were incubated 30 minutes with 40 μL/well of Steady Glow (Promega) and luminescence was read with TECAN Genios Pro (100 ms/w). […]
pEC50: −log10 of the molar value.

[
  {
    "molecule": "COc1ncc(F)cc1-c1ccc(C(F)(F)F)cc1Oc1ccc2nnc(Cl)n2n1 [Cpd.4-131]",
    "pEC50": "6.00 to 7.00"
  },
  {
    "molecule": "COc1ncc(F)cc1-c1ccc(C(F)(F)F)cc1Oc1cc(C)c2nnc(Cl)n2n1 [Cpd.4-193]",
    "pEC50": "6.00 to 7.00"
  },
  {
    "molecule": "CN(Cc1ccccc1)Cc1ccc(-c2ccccc2)c(Oc2ccc3nnc(Cl)n3n2)c1 [Cpd.4-60]",
    "pEC50": "6.00 to 7.00"
  }
]

For FC(F)(F)c1ccc(-c2ccccc2Oc2ccc3nnc(Cl)n3n2)cc1 [Cpd.4-24] , what is its reported pEC50? 6.00 to 7.00

Fill in: pEC50 of Cc1nc(-c2ccc(Oc3nn4c(Cl)nnc4cc3C)c(-c3ccccc3)c2)no1 [Cpd.5-65] is ___ 5.22 to 6.00

Value lookup for pEC50; key = CS(=O)(=O)N1CCN(Cc2ccc(-c3ccccc3)c(Oc3ccc4nnc(Cl)n4n3)c2)CC1 [Cpd.4-182] 5.22 to 6.00

// query pEC50 value for entry Nc1ccc(-c2ccccc2)c(Oc2ccc3nnc(Cl)n3n2)c1 [Cpd.4-48] 5.22 to 6.00

pEC50 for FC(F)(F)c1ccc(CN2CCOCC2)c(Oc2ccc3nnc(Cl)n3n2)c1 [Cpd.4-122] ? 5.22 to 6.00

For the molecule shown here, CCCn1cc(-c2ccc(C(F)(F)F)cc2Oc2ccc3nnc(Cl)n3n2)ccc1=O [Cpd.4-88] , give the reported pEC50. < 5.22

====

target desc: Rev-Erb alpha (Homo sapiens, UniProt P20393)
Sequence (P20393 284-614 limits assumed): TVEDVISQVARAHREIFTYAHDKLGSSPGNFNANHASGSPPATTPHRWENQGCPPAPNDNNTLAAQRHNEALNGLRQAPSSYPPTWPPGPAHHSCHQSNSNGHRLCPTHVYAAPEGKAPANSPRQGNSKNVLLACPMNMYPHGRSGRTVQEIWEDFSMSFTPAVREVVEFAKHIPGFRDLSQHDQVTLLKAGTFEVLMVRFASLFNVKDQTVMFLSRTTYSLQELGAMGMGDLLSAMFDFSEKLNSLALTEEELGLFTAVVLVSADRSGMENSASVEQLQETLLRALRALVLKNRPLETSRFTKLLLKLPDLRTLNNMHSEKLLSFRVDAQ
experiment summary: M2H (mammalian two-hybrid) cellular activation assay of Rev-Erb alpha
Type: cell-based
conditions used: M2H assay, HEK293 cells, Gal4-Rev-Erb alpha / VP16-NCoR, luciferase reporter
measured parameter: EC50

[
  {
    "molecule": "CC(C)CNc1ccc(Oc2ccc3nnc(Cl)n3n2)c(-c2ccccc2)c1 [Cpd.4-67]",
    "EC50": "< 0.1 µM"
  },
  {
    "molecule": "Cc1cc(Oc2cc(C(F)(F)F)ccc2-c2cccnc2)nn2c(C(F)(F)F)nnc12 [Cpd.5-32]",
    "EC50": "> 6 µM"
  }
]

Requested read-out: EC50. Entry: Fc1ccc(-c2ccccc2)c(Oc2ccc3nnc(Cl)n3n2)c1 [Cpd.4-7] 0.1 to 1 µM

Report EC50 for CCc1c(Oc2cc(C(F)(F)F)ccc2-c2ccccc2)nn2c(Cl)nnc2c1CC [Cpd.5-12] please. 0.1 to 1 µM

EC50 lookup needed for FC(F)(F)c1ccc(-c2ccccc2)c(Oc2nn3c(Cl)nnc3c3ccccc23)c1 [Cpd.5-1] , thanks. < 0.1 µM

Query (molecule): FC(F)(F)c1cccc(Oc2ccc3nnc(Cl)n3n2)c1-c1ccccc1 ; field requested: EC50 < 0.1 µM

Any idea what EC50 was measured for CN(C)Cc1ccc(Oc2ccc3nnc(Cl)n3n2)c(-c2ccccc2)c1 [Cpd.4-63] ? > 6 µM

Requested field: EC50. Item: COc1cccc(-c2cc(F)ccc2Oc2ccc3nnc(Cl)n3n2)c1 [Cpd.4-76] 0.1 to 1 µM

Give the measured EC50 of COc1ncc(-c2cc(Cl)ccc2Oc2ccc3nnc(Cl)n3n2)cn1 [Cpd.4-195] . > 6 µM

// data source = patent US9586963B2
